Would you kindly list a(C3, CA1, O1) for each of these compounds?
Target Entity: MASP-2 CCP2-SP (Homo sapiens (Human), UniProt O00187)
Sequence (O00187 445-686): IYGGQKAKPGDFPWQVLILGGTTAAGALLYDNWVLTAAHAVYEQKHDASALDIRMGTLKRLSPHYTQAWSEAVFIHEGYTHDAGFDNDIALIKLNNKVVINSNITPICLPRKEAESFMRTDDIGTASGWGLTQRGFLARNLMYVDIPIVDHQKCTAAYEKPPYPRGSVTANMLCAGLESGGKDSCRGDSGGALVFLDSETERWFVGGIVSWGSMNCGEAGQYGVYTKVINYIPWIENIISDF
Sequence (O00187 364-432 partner): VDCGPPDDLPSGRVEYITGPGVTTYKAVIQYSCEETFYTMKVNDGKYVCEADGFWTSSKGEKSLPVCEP
Assay Method Text: MASP-2 co-crystallization, X-ray crystallography and structure analysis (H-bonds, van der Waals contacts)
Measurement Setup: Table A6-1 pharmacophore angle
Where a name gives a salt, the structure may show the parent alone.
Write the value as a bare number.

Prompt: Given the compound Cc1nc(N)ccc1CNC(=O)[C@H](C)NC(=O)[C@H]1C[C@H](Cc2ccccc2Br)CN1.O=C(O)C(F)(F)F.O=C(O)C(F)(F)F [1372_B] , what is its reported a(C3, CA1, O1)?
Response: 149.88

Prompt: Given the compound Cc1nc(N)ccc1CNC(=O)[C@H](C)NC(=O)[C@H]1C[C@H](Cc2ccccc2Br)CN1.O=C(O)C(F)(F)F.O=C(O)C(F)(F)F [1372_A] , what is its reported a(C3, CA1, O1)?
Response: 149.88

Prompt: Given the compound Cc1nc(N)ccc1CNC(=O)[C@H](C)NC(=O)[C@H]1C[C@H](Cc2ccc3ccccc3c2)CN1 [compound 1338] , what is its reported a(C3, CA1, O1)?
Response: 148.99

Prompt: Given the compound Cc1nc(N)ccc1CNC(=O)[C@H](C)NC(=O)[C@H]1C[C@@H](Cc2ccccc2)CCN1 [compound 1353] , what is its reported a(C3, CA1, O1)?
Response: 149.99

Prompt: Given the compound Cc1nc(N)ccc1CNC(=O)[C@H](C)NC(=O)[C@H]1C[C@@H](c2ccccc2)CCN1CCC(=O)O [compound 1411, Trifluoroacetate salt] , what is its reported a(C3, CA1, O1)?
Response: 149.02

Prompt: Given the compound Cc1nc(N)ccc1CNC(=O)[C@H](C)NC(=O)[C@H]1C[C@H](Cc2cc(-c3ccccc3)cs2)CN1 [compound 1399, Dihydrochloride] , what is its reported a(C3, CA1, O1)?
Response: 149.86

---

Would you kindly list Ligand-pharmacophore element distance, pharmacophore element CA3 for each of these molecules?
Target Entity: UniProt O00187
Assay Method Text: MASP-2 co-crystallization, X-ray crystallography and structure analysis (H-bonds, van der Waals contacts)
Measurement Setup: Table A4-1; element CA3
Write the value as a bare number.

Prompt: Given the molecule C[C@H](NC(=O)[C@H](N)CCCc1ccccc1)C(=O)NCc1ccc(C(=N)N)cc1.Cl.Cl [1042_3] , what is its reported Ligand-pharmacophore element distance, pharmacophore element CA3?
Response: 0

Prompt: Given the molecule C[C@H](NC(=O)[C@H]1Cc2c([nH]c3ccccc23)CN1)C(=O)NCc1ccc(C(=N)N)cc1.Cl.Cl [1097_2] , what is its reported Ligand-pharmacophore element distance, pharmacophore element CA3?
Response: 0

Prompt: Given the molecule Cc1nc(N)ccc1CNC(=O)[C@H](C)NC(=O)[C@H]1C[C@H](Cc2cccc(Cl)c2)CN1.Cl.Cl [1328_4] , what is its reported Ligand-pharmacophore element distance, pharmacophore element CA3?
Response: 0

Prompt: Given the molecule Cc1nc(N)ccc1CNC(=O)[C@H](C)NC(=O)c1cc(Cc2ccccc2)n[nH]1 , what is its reported Ligand-pharmacophore element distance, pharmacophore element CA3?
Response: 0

Prompt: Given the molecule C[C@H](NC(=O)[C@H]1C[C@@H](c2ccccc2)CCN1)C(=O)NCc1cc(Cl)ccc1O.Cl [1078_10] , what is its reported Ligand-pharmacophore element distance, pharmacophore element CA3?
Response: 0

Prompt: Given the molecule C[C@H](NC(=O)[C@H]1C[C@H](Cc2ccccc2)CN1)C(=O)NCc1ccc(C(=N)N)cc1.Cl.Cl [1306_1] , what is its reported Ligand-pharmacophore element distance, pharmacophore element CA3?
Response: 0

Prompt: Given the molecule Cc1nc(N)ccc1CNC(=O)[C@H](C)NC(=O)[C@H]1C[C@@H](c2ccccc2)CCN1C , what is its reported Ligand-pharmacophore element distance, pharmacophore element CA3?
Response: 0

Hello, the source for this data is patent US12195427B2, in case you need it.
